Origin of measurements: patent US11608323B2

Tested on: ALOMY
assay notes: Post-emergence herbicidal activity, glasshouse pot test; note: key: 5=total damage to plant; 0=no damage to plant
Type: in vivo
test conditions: Alopecurus myosuroides; application post-emergence; rate 1000 g/Ha; evaluated after 13 days
Post-emergence herbicidal activity ALOMY (damage score 0-5) values, listed per item
Please reply with the value in numeric form only.

Consider the following illustrative entries.
>  <compound>
CC1C(O)N(c2cc(C(F)(F)F)ccn2)C(=O)N1C (stereo not shown)

>  <test result>
5

$$$$
>  <compound>
C#CCOC1C(O)N(c2cc(C(F)(F)F)ccn2)C(=O)N1C (stereo not shown)

>  <test result>
4

$$$$
>  <compound>
COC1C(O)N(c2cc(C(F)(F)F)ccn2)C(=O)N1C (stereo not shown)

>  <test result>
4

$$$$
>  <compound>
CCO[C@@H]1[C@@H](OC(=O)C(C)Cl)N(c2cc(C(F)(F)F)ccn2)C(=O)N1C (stereo partly shown)

>  <test result>
5

$$$$
>  <compound>
Cc1ccnc(N2C(=O)N(C)C(C)C2O)c1 (single isomer, unassigned)

>  <test result>
3

$$$$
>  <compound>
CON1C(=O)N(c2cc(C(F)(F)F)c(C)cn2)C(O)C1C (single isomer, unassigned)

>  <test result>
4

$$$$
>  <compound>
CON1CC(O)N(c2cc(C(F)(F)F)ccn2)C1=O (stereo not shown)

>  <test result>
4

$$$$
>  <compound>
CCOC1C(O)N(c2cc(C(F)(F)F)c(OC)cn2)C(=O)N1C (stereo not shown)

>  <test result>
5

$$$$
>  <compound>
COc1cncc(-c2cnc(N3C(=O)N(C)C(C)C3O)cc2C(F)(F)F)c1 (stereo not shown)

>  <test result>
5

$$$$

Let us examine a further case.
Problem: What value of Post-emergence herbicidal activity ALOMY (damage score 0-5) has been recorded for this entry: CCOC1C(O)N(c2cc(C(F)(F)F)ccn2)C(=O)N1C (racemic)
Result: 5
